Every entry's value here was drawn from the supplement of paper PMC6757056.

B1: library; a variant is named by its letters at N, in order (parent)
chain: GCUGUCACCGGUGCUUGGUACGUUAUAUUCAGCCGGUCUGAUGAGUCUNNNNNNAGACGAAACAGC

Variants of: B1
Assay: normalized RNA/DNA level without ligand (relative to sTRSVctl = 100) (log10 (% of sTRSVctl)); HEK293T overexpressing SLC46A1; higher = less ribozyme self-cleavage, higher mRNA level
Conditions: without (6R,S)-folinic acid; ligand present: no
measured_parameter: normalized RNA/DNA level without ligand (log10)
// no unit string in output, number only

Form: variant = `UUCGUG` ; normalized RNA/DNA level without ligand (log10) = 1.81

Form: variant = `GCCCUG` ; normalized RNA/DNA level without ligand (log10) = 2.05

Form: variant = `GAUUCG` ; normalized RNA/DNA level without ligand (log10) = 1.98

Form: variant = `UACAGU` ; normalized RNA/DNA level without ligand (log10) = 1.92

Form: variant = `GGCCGC` ; normalized RNA/DNA level without ligand (log10) = 2.07

Form: variant = `UGAAAG` ; normalized RNA/DNA level without ligand (log10) = 1.81

Form: variant = `ACUCAA` ; normalized RNA/DNA level without ligand (log10) = 1.97

Form: variant = `AUACAG` ; normalized RNA/DNA level without ligand (log10) = 1.94

Form: variant = `CUACUG` ; normalized RNA/DNA level without ligand (log10) = 2.01

Form: variant = `AGAGGU` ; normalized RNA/DNA level without ligand (log10) = 1.89

Form: variant = `GCCGAC` ; normalized RNA/DNA level without ligand (log10) = 1.98

Form: variant = `GAAAUG` ; normalized RNA/DNA level without ligand (log10) = 1.95

Form: variant = `UCUUUU` ; normalized RNA/DNA level without ligand (log10) = 2.01

Form: variant = `AAAGCU` ; normalized RNA/DNA level without ligand (log10) = 2

Form: variant = `GUAUUU` ; normalized RNA/DNA level without ligand (log10) = 2

Form: variant = `AGCCUC` ; normalized RNA/DNA level without ligand (log10) = 2.05

Form: variant = `AUAUAC` ; normalized RNA/DNA level without ligand (log10) = 1.99

Form: variant = `CUUGAC` ; normalized RNA/DNA level without ligand (log10) = 2
